Value source: PubChem BioAssay

Experiment: inhibitors of mutant huntingtin aggregation, primary screen, imaging, exon1htt(103Q)mCFP cells, high-content imaging (AID 483);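 further: compound exposure lasted 3 days before fixation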
Conditions: exon1htt(103Q)mCFP cell line, aggregate imaging, at 2 µM; hits give high values
Decide by inhibition of aggregation: equal to or exceeding -10% means condition met, less means condition not met.

Solved entries (count: 3):
CCCC(=O)Nc1cnc(NC(=O)c2cccc(F)c2)cc1C :: condition met
O=C(c1ccco1)N1CCN(c2cccc(Cl)c2)CC1 :: condition met
O=C(NC1CCCC1)c1ccc2nc[nH]c2c1 :: condition met

Q) Does the reported inhibition of aggregation for Cc1cc(=O)oc2c1c(C)nn2-c1ccc(C(=O)OC(C)C)cc1 fall at or above the -10% mark?
A) condition not met

Q) Does the reported inhibition of aggregation for Cc1nc2sc(C(c3cccs3)N3CC(C)CC(C)C3)c(O)n2n1 (stereo unspecified) fall at or above the -10% mark?
A) condition met
